Ref: the supplement of paper PMC4862054

# Test system: MDA-MB-436
# assay-comment: normalised viability (% of control), CellTiter-Blue; higher = more viable cells (about 100 = DMSO control)
# setup-conditions: 10000 nM; incubation time: 72 h
Field 'label' (enum: Criterion met / Criterion not met). Set to Criterion met when normalised viability is strictly under 50%; else Criterion not met.

Some solved cases for reference:
INSERT INTO results (given_smiles, answer_label) VALUES
  ('CN(C)C[C@@H]1CCn2cc(c3ccccc32)C2=C(C(=O)NC2=O)c2cn(c3ccccc23)CCO1', 'Criterion met'),
  ('Cn1cncc1[C@@](N)(c1ccc(Cl)cc1)c1ccc2c(c1)c(-c1cccc(Cl)c1)cc(=O)n2C', 'Criterion not met'),
  ('CC(C)(C#N)c1cc(Cn2cncn2)cc(C(C)(C)C#N)c1', 'Criterion not met');

query: Please determine if CN1CCN(CCOc2cc(OC3CCOCC3)c3c(Nc4c(Cl)ccc5c4OCO5)ncnc3c2)CC1 is below 50% in terms of normalised viability.
result: Criterion not met

* * *

Give normalised response for every item shown.
# System: MDA-MB-468
# assay-comment: normalised response (% of control), CellTiter-Glo; higher = more viable cells (100 = DMSO, 0 = benzethonium chloride kill control)
# setup-conditions: incubation time: 72 h
Answers are plain numbers, in %.

INSERT INTO results (compound, test_target, observed_measurement) VALUES
  ('CCCCCCCCc1ccc(CCC(N)(CO)CO)cc1 [Fingolimod] (10 nM)', 'MDA-MB-468', 94.2),
  ('CO[C@H]1C[C@@H]2CC[C@@H](C)[C@@](O)(O2)C(=O)C(=O)N2CCCC[C@H]2C(=O)O[C@H]([C@H](C)C[C@@H]2CC[C@@H](OCCO)[C@H](OC)C2)CC(=O)[C@H](C)/C=C(\C)[C@@H](O)[C@@H](OC)C(=O)[C@H](C)C[C@H](C)/C=C/C=C/C=C/1C [Everolimus] (10 nM)', 'MDA-MB-468', 52.1),
  ('COc1ccc(-c2ccc3c(N4CCOC[C@@H]4C)nc(N4CCOC[C@@H]4C)nc3n2)cc1CO [AZD8055] (1 nM)', 'MDA-MB-468', 90.5),
  ('CCCCCCCCc1ccc(CCC(N)(CO)CO)cc1 [Fingolimod] (1 nM)', 'MDA-MB-468', 107),
  ('CN(C)C[C@@H]1CCn2cc(c3ccccc32)C2=C(C(=O)NC2=O)c2cn(c3ccccc23)CCO1 [Ruboxistaurin] (1000 nM)', 'MDA-MB-468', 73.8);

Could I get normalised response for every one of these entries?
1. CO[C@H]1C[C@@H]2CC[C@@H](C)[C@@](O)(O2)C(=O)C(=O)N2CCCC[C@H]2C(=O)O[C@H]([C@H](C)C[C@@H]2CC[C@@H](OCCO)[C@H](OC)C2)CC(=O)[C@H](C)/C=C(\C)[C@@H](O)[C@@H](OC)C(=O)[C@H](C)C[C@H](C)/C=C/C=C/C=C/1C [Everolimus] (0.1 nM)
2. COc1ccccc1S(=O)(=O)Nc1ccc2c(c1)CN(C)C(=O)N2 [PFI-1] (10 nM)

result:
[84.8, 95.3]

Could I get normalised response for every one of these entries?
1. CC[C@]1(O)C[C@H]2CN(CCc3c([nH]c4ccccc34)[C@@](C(=O)OC)(c3cc4c(cc3OC)N(C=O)[C@H]3[C@@](O)(C(=O)OC)[C@H](OC(C)=O)[C@]5(CC)C=CCN6CC[C@]43[C@@H]65)C2)C1 [Vincristine] (100 nM)
2. C[C@]12CC[C@H](O)CC1=CC[C@@H]1[C@@H]2CC[C@]2(C)C(c3cccnc3)=CC[C@@H]12 [Abiraterone] (0.5 nM)

result:
32.9
109

Could I get normalised response for every one of these entries?
1. CNNCc1ccc(C(=O)NC(C)C)cc1 [Procarbazine] (10 nM)
2. Cc1ccc(NC(=O)c2ccc(CN3CCN(C)CC3)cc2)cc1Nc1nccc(-c2cccnc2)n1 [Imatinib] (10 nM)
3. c1ccc([C@H]2CN3CCSC3=N2)cc1 [Levamisole] (10 nM)
4. CN(C)CCN1C(=O)c2cccc3cc(N)cc(c23)C1=O [Amonafide] (1 nM)

result:
113
113
102
94.7

query: Answer with reported normalised response of O=C(O)CCCc1ccc(N(CCCl)CCCl)cc1 [Chlorambucil] (1 nM)
result: 96.9

* * *

# Test system: HCC1143
# assay-comment: normalised response (% of control), CellTiter-Glo; higher = more viable cells (100 = DMSO, 0 = benzethonium chloride kill control)
# setup-conditions: incubation time: 72 h
measurement-type: normalised response (%)
Numbers only, in %.

Could I get normalised response for every one of these entries?
1. CC(C)(C#N)c1cc(Cn2cncn2)cc(C(C)(C)C#N)c1 [Anastrozole] (1000 nM)
2. CN(C)CCN1C(=O)c2cccc3cc(N)cc(c23)C1=O [Amonafide] (10 nM)
3. CNNCc1ccc(C(=O)NC(C)C)cc1 [Procarbazine] (10 nM)
4. CO[C@H]1C[C@@H]2CC[C@@H](C)[C@@](O)(O2)C(=O)C(=O)N2CCCC[C@H]2C(=O)O[C@H]([C@H](C)C[C@@H]2CC[C@@H](OCCO)[C@H](OC)C2)CC(=O)[C@H](C)/C=C(\C)[C@@H](O)[C@@H](OC)C(=O)[C@H](C)C[C@H](C)/C=C/C=C/C=C/1C [Everolimus] (10 nM)

result:
1. 101
2. 101
3. 105
4. 62.6

Could I get normalised response for every one of these entries?
1. COc1ccccc1S(=O)(=O)Nc1ccc2c(c1)CN(C)C(=O)N2 [PFI-1] (1000 nM)
2. CN(C)C[C@@H]1CCn2cc(c3ccccc32)C2=C(C(=O)NC2=O)c2cn(c3ccccc23)CCO1 [Ruboxistaurin] (1 nM)
3. CC(C)(C#N)c1cc(Cn2cncn2)cc(C(C)(C)C#N)c1 [Anastrozole] (10 nM)

result:
[94.1, 94.4, 103]

* * *

# Test system: MDA-MB-231
# setup-conditions: 72 h
measurement-type: EC50, CellTiter-Blue viability (nM)
One number for each entry, in nM.

Known EC50, CellTiter-Blue viability results, listed for orientation:
INSERT INTO measurements (compound, measurement_type, units, observed_measurement) VALUES
  ('CN(C)CCN1C(=O)c2cccc3cc(N)cc(c23)C1=O [Amonafide]', 'EC50, CellTiter-Blue viability', 'nM', 2240),
  ('O=C1NC(=O)[C@@H](c2cn3c4c(cccc24)CCC3)[C@@H]1c1c[nH]c2ccccc12 [Tivantinib]', 'EC50, CellTiter-Blue viability', 'nM', 676),
  ('CN1CCN(CCOc2cc(OC3CCOCC3)c3c(Nc4c(Cl)ccc5c4OCO5)ncnc3c2)CC1', 'EC50, CellTiter-Blue viability', 'nM', 13.2);

Now, please, on to the next compound.
query: Provide EC50, CellTiter-Blue viability, tested on MDA-MB-231, for Cn1c(=O)n(-c2ccc(C(C)(C)C#N)cc2)c2c3cc(-c4cnc5ccccc5c4)ccc3ncc21 .
result: 12.9

* * *

# Test system: HDQ-P1
# assay-comment: drug sensitivity score (DSS), CellTox Green (DSS (AUC-based score)); higher = stronger drug effect (viability inhibition or cytotoxicity); extreme values may be limits of the assay
# setup-conditions: incubation time: 72 h
Give drug sensitivity score for every item shown.
One number for each entry.

Known drug sensitivity score results, listed for orientation:
INSERT INTO measurements (compound, measurement_type, observed_measurement) VALUES
  ('CC(C)(C#N)c1cc(Cn2cncn2)cc(C(C)(C)C#N)c1 [Anastrozole]', 'drug sensitivity score', 0),
  ('O=C(O)CCCc1ccc(N(CCCl)CCCl)cc1 [Chlorambucil]', 'drug sensitivity score', 0),
  ('COc1ccccc1S(=O)(=O)Nc1ccc2c(c1)CN(C)C(=O)N2 [PFI-1]', 'drug sensitivity score', 0);

Now, please, on to the next compound.
query: Answer with reported drug sensitivity score of Cc1ccc(NC(=O)c2ccc(CN3CCN(C)CC3)cc2)cc1Nc1nccc(-c2cccnc2)n1 [Imatinib]
result: 0

* * *

Give normalised viability for every item shown.
# Test system: CAL-51
# assay-comment: normalised viability (% of control), CellTiter-Blue; higher = more viable cells (100 = DMSO, 0 = benzethonium chloride kill control)
# setup-conditions: 1 nM; incubation time: 72 h
Give bare numbers, in %.

Known normalised viability results, listed for orientation:
INSERT INTO assay_data (compound, measurement_type, observed_measurement) VALUES
  ('CC[C@]1(O)C[C@H]2CN(CCc3c([nH]c4ccccc34)[C@@](C(=O)OC)(c3cc4c(cc3OC)N(C=O)[C@H]3[C@@](O)(C(=O)OC)[C@H](OC(C)=O)[C@]5(CC)C=CCN6CC[C@]43[C@@H]65)C2)C1', 'normalised viability', 93.8),
  ('CC(C)(C#N)c1cc(Cn2cncn2)cc(C(C)(C)C#N)c1', 'normalised viability', 108),
  ('CN(C)CCN1C(=O)c2cccc3cc(N)cc(c23)C1=O [Amonafide]', 'normalised viability', 107),
  ('CN1CCN(CCOc2cc(OC3CCOCC3)c3c(Nc4c(Cl)ccc5c4OCO5)ncnc3c2)CC1', 'normalised viability', 106),
  ('O=C(O)CCCc1ccc(N(CCCl)CCCl)cc1', 'normalised viability', 111);

Now, please, on to the next compound.
query: Answer with reported normalised viability of CNNCc1ccc(C(=O)NC(C)C)cc1
result: 100
